Origin of values: patent US20050106745A1

assay: BBB-PAMPA effective permeability (Sol-PAMPA); conditions: PAMPA, pH 7.4
Where a name gives a salt, the structure may show the parent alone.
Give Condition met when the value for Papp at 16 h is at least 10 ×10⁻⁶ cm/s. Give Condition not met when it is less.

INSERT INTO measurements (compound, qualitative_label) VALUES
  ('CN(C)CCC=C1c2ccccc2CCc2ccccc21 [Amitriptyline HCl, amitriptyline]', 'Condition met'),
  ('Cc1cc(NC(=O)C2=C(O)c3ccccc3S(=O)(=O)N2C)no1 [Isoxicam, isoxicam]', 'Condition not met'),
  ('CNC(=C[N+](=O)[O-])NCCSCc1ccc(CN(C)C)o1 [Ranitidine HCl, ranitidine]', 'Condition not met'),
  ('c1ccc2nc(N3CCNCC3)ccc2c1 [Quipazine]', 'Condition met'),
  ('Clc1cccc(Cl)c1N=C1NCCN1 [Clonidine, clonidine]', 'Condition not met'),
  ('NC(=O)N1c2ccccc2C=Cc2ccccc21 [Carbamazepine, carbamazepine]', 'Condition met'),
  ('CNCCCN1c2ccccc2CCc2ccccc21 [Desipramine, desipramine]', 'Condition met'),
  ('c1cc(CN2CCCCC2)cc(OCCCNc2nc3ccccc3s2)c1 [Zolantidine]', 'Condition met');

---

Test: physchem
Details: pH 7.4, aqueous buffer, kinetic from dmso stock
Method: The aqueous and aqueous/methanol solutions were shaken for 90 minutes at room temperature. […] Next, the optical density (OD) at an appropriate wavelength (λ) was determined for each compound by the analysis algorithm as follows: the UV-Visible spectra were analyzed with a program written in HPBASIC for Windows (TransEra Corporation, Orem, Utah). […] The locations (λ) and the values of all the peaks [OD(λ)] were then determined. […]
Structures can show the parent of a compound that is named as a salt.
# solubility kinetic at 90 min >= 200 µM gives yes (1), anything below gives no (0)

INSERT INTO measurements (molecule, qualitative_label) VALUES
  ('Clc1cccc(Cl)c1N=C1NCCN1 [Clonidine, clonidine]', 'yes (1)'),
  ('CNCCCN1c2ccccc2CCc2ccccc21 [Desipramine, desipramine]', 'yes (1)'),
  ('c1cc(CN2CCCCC2)cc(OCCCNc2nc3ccccc3s2)c1 [Zolantidine]', 'no (0)'),
  ('CNC(=C[N+](=O)[O-])NCCSCc1ccc(CN(C)C)o1 [Ranitidine HCl, ranitidine]', 'no (0)'),
  ('CN(C)C(=O)C(CCN1CCC(O)(c2ccc(Cl)cc2)CC1)(c1ccccc1)c1ccccc1 [Loperamide]', 'no (0)'),
  ('NC(=O)N1c2ccccc2C=Cc2ccccc21 [Carbamazepine, carbamazepine]', 'yes (1)'),
  ('c1ccc2nc(N3CCNCC3)ccc2c1 [Quipazine]', 'yes (1)'),
  ('Cc1cc(NC(=O)C2=C(O)c3ccccc3S(=O)(=O)N2C)no1 [Isoxicam, isoxicam]', 'yes (1)'),
  ('CN(C)CCC=C1c2ccccc2CCc2ccccc21 [Amitriptyline HCl, amitriptyline]', 'no (0)'),
  ('C[C@]12N[C@H](Cc3ccccc31)c1ccccc12 [MK-801, dizocilpine]', 'yes (1)'),
  ('COCCCC/C(=N\OCCN)c1ccc(C(F)(F)F)cc1 [Fluvoxamine, fluvoxamine]', 'yes (1)');

---

assay: in vitro; details: PAMPA, pH 7.4
measured.metric: Papp (×10⁻⁶ cm/s)

INSERT INTO measurements (molecule, quantitative_readout) VALUES
  ('CN(C)C(=O)C(CCN1CCC(O)(c2ccc(Cl)cc2)CC1)(c1ccccc1)c1ccccc1 [Loperamide]', 1.07);

---

Attribute: solubility at 90 min
experiment: Solubility determination, modified Direct UV method (Sol-PAMPA solubility portion); conditions: pH 5, aqueous buffer, kinetic from dmso stock
measured.metric: solubility at 90 min (µM)

INSERT INTO measurements (compound, inequality_sign, quantitative_readout) VALUES
  ('Cn1c(=O)c2[nH]cnc2n(C)c1=O [Theophylline, theophylline]', '=', 337),
  ('Nc1ccc(/N=N/c2ccccc2)c(N)n1 [Phenazopyridine, phenazopyridine]', '=', 89),
  ('CNCCCN1c2ccccc2CCc2ccccc21 [Desipramine, desipramine]', '>', 350),
  ('CC(C)NCC(O)COc1cccc2ccccc12 (stereo not drawn) [Propranolol, s-propranolol]', '>', 350),
  ('CN1C(C(=O)Nc2ccccn2)=C(O)c2ccccc2S1(=O)=O [Piroxicam, piroxicam]', '=', 66),
  ('O=C(O)Cc1ccccc1Nc1c(Cl)cccc1Cl [Diclofenac, diclofenac]', '=', 18);

---

Assay: physchem
Details: pH 3, aqueous buffer, kinetic from dmso stock
Description: The aqueous and aqueous/methanol solutions were shaken for 90 minutes at room temperature. […] Next, the optical density (OD) at an appropriate wavelength (λ) was determined for each compound by the analysis algorithm as follows: the UV-Visible spectra were analyzed with a program written in HPBASIC for Windows (TransEra Corporation, Orem, Utah). […] The locations (λ) and the values of all the peaks [OD(λ)] were then determined. […]
measured.metric: solubility at 90 min (µM)

INSERT INTO results (compound, inequality_sign, quantitative_readout) VALUES
  ('O=C(O)Cc1ccccc1Nc1c(Cl)cccc1Cl [Diclofenac, diclofenac]', '=', 9),
  ('CC(C)NCC(O)COc1cccc2ccccc12 (stereo not drawn) [Propranolol, s-propranolol]', '>', 350),
  ('CN1C(C(=O)Nc2ccccn2)=C(O)c2ccccc2S1(=O)=O [Piroxicam, piroxicam]', '=', 55),
  ('Cn1c(=O)c2[nH]cnc2n(C)c1=O [Theophylline, theophylline]', '=', 330),
  ('CNCCCN1c2ccccc2CCc2ccccc21 [Desipramine, desipramine]', '>', 350),
  ('Nc1ccc(/N=N/c2ccccc2)c(N)n1 [Phenazopyridine, phenazopyridine]', '=', 332);

---

assay: Solubility determination, modified Direct UV method (Sol-PAMPA solubility portion); details: pH 7.4, aqueous buffer, kinetic from dmso stock
measured.metric: solubility at 90 min (µM)

INSERT INTO measurements (compound, inequality_sign, quantitative_readout) VALUES
  ('Cn1c(=O)c2[nH]cnc2n(C)c1=O', '=', 290),
  ('Nc1ccc(/N=N/c2ccccc2)c(N)n1', '=', 86),
  ('CC(C)NCC(O)COc1cccc2ccccc12 (stereo not drawn)', '>', 350),
  ('O=C(O)Cc1ccccc1Nc1c(Cl)cccc1Cl', '=', 274),
  ('CN1C(C(=O)Nc2ccccn2)=C(O)c2ccccc2S1(=O)=O', '=', 257),
  ('CNCCCN1c2ccccc2CCc2ccccc21', '>', 350);

---

Form field: solubility at 90 min (one value per entry).
assay: Solubility determination, modified Direct UV method (Sol-PAMPA solubility portion); details: pH 9, aqueous buffer, kinetic from dmso stock
measured.metric: solubility at 90 min (µM)

INSERT INTO measurements (compound, scale_unit, inequality_sign, quantitative_readout) VALUES
  ('Cn1c(=O)c2[nH]cnc2n(C)c1=O', 'µM', '>', 350),
  ('CN1C(C(=O)Nc2ccccn2)=C(O)c2ccccc2S1(=O)=O', 'µM', '=', 336),
  ('Nc1ccc(/N=N/c2ccccc2)c(N)n1', 'µM', '=', 71),
  ('O=C(O)Cc1ccccc1Nc1c(Cl)cccc1Cl', 'µM', '=', 324),
  ('CNCCCN1c2ccccc2CCc2ccccc21', 'µM', '>', 350),
  ('CC(C)NCC(O)COc1cccc2ccccc12 (stereo not drawn)', 'µM', '>', 350);
